# Tested target: CD80-CD28 interaction (Homo sapiens)
# Construct: mouse Fab fragment (fusion partner)
# Sequence (P33681 35-242 limits assumed): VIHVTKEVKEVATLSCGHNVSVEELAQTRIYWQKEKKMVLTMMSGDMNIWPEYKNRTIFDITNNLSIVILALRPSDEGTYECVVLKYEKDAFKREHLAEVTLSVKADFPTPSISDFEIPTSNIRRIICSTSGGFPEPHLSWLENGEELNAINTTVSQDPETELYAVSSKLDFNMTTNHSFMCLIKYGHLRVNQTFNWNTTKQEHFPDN
# Test protocol: cell free Homogenous Time Resolved Fluorescence (HTRF) assay, inhibition of the CD80-CD28 interaction
# Format: binding
# Experimental context: 4 hours at room temperature, read-out: Activity (EC50 in summary form)
Measure: EC50

Q. Form field: reported EC50 of CCN(CC)CCCCNC(=O)c1ccc(-n2nc3c4ccccc4[nH]cc-3c2=O)cc1
A. 1000 to 10000 nM

Q. What do we get for O=C(NCCN1CCN(Cc2ccccc2)CC1)c1ccc(-n2nc3c4cccc(F)c4[nH]cc-3c2=O)cc1 ?
A. < 1000 nM

Q. What do we get for O=c1c2c[nH]c3c(F)cccc3c-2nn1-c1ccc(NC(=S)NC2CCCCC2)cc1 ?
A. > 10000 nM

Q. What do we get for CN1C(C)(C)CC(NC(=O)c2ccc(-n3nc4c5cccc(F)c5[nH]cc-4c3=O)cc2)CC1(C)C ?
A. < 1000 nM

Q. What do we get for CCN(CC)C(=O)c1ccc(-n2nc3c4cccc(F)c4[nH]cc-3c2=O)cc1 ?
A. 1000 to 10000 nM
